METHOD SUMMARY: 5-week stability test at 60°C
Format: physicochemical
PARTICULARS: read-out: compound remaining

COMPOUND: CCOC(=O)[C@H]1O[C@@H]1C(=O)N[C@@H](CC(C)C)C(=O)NCCC(C)C (relative stereo) [AB-007]
remaining at 840 h / %: 99
